Taken from ChEMBL document CHEMBL3853331.

ASSAY OVERVIEW: Volume of distribution at steady state in Wistar rat plasma at 0.2 mg/kg, iv
Format: ADME, organism-based
TEST CONTEXT: read-out: Vdss

[
  {
    "COMPOUND": "O=C(Nc1ccc(F)cc1)N1N=C(c2ccncc2)CC1c1ccc(F)cc1 (stereo unspecified)",
    "Vd, L/kg": 23
  }
]

---

# pIC50 listing for each entry below
TEST TARGET: Voltage-dependent L-type calcium channel subunit alpha-1C (Homo sapiens, UniProt Q13936)
Sequence (Q13936 whole entry): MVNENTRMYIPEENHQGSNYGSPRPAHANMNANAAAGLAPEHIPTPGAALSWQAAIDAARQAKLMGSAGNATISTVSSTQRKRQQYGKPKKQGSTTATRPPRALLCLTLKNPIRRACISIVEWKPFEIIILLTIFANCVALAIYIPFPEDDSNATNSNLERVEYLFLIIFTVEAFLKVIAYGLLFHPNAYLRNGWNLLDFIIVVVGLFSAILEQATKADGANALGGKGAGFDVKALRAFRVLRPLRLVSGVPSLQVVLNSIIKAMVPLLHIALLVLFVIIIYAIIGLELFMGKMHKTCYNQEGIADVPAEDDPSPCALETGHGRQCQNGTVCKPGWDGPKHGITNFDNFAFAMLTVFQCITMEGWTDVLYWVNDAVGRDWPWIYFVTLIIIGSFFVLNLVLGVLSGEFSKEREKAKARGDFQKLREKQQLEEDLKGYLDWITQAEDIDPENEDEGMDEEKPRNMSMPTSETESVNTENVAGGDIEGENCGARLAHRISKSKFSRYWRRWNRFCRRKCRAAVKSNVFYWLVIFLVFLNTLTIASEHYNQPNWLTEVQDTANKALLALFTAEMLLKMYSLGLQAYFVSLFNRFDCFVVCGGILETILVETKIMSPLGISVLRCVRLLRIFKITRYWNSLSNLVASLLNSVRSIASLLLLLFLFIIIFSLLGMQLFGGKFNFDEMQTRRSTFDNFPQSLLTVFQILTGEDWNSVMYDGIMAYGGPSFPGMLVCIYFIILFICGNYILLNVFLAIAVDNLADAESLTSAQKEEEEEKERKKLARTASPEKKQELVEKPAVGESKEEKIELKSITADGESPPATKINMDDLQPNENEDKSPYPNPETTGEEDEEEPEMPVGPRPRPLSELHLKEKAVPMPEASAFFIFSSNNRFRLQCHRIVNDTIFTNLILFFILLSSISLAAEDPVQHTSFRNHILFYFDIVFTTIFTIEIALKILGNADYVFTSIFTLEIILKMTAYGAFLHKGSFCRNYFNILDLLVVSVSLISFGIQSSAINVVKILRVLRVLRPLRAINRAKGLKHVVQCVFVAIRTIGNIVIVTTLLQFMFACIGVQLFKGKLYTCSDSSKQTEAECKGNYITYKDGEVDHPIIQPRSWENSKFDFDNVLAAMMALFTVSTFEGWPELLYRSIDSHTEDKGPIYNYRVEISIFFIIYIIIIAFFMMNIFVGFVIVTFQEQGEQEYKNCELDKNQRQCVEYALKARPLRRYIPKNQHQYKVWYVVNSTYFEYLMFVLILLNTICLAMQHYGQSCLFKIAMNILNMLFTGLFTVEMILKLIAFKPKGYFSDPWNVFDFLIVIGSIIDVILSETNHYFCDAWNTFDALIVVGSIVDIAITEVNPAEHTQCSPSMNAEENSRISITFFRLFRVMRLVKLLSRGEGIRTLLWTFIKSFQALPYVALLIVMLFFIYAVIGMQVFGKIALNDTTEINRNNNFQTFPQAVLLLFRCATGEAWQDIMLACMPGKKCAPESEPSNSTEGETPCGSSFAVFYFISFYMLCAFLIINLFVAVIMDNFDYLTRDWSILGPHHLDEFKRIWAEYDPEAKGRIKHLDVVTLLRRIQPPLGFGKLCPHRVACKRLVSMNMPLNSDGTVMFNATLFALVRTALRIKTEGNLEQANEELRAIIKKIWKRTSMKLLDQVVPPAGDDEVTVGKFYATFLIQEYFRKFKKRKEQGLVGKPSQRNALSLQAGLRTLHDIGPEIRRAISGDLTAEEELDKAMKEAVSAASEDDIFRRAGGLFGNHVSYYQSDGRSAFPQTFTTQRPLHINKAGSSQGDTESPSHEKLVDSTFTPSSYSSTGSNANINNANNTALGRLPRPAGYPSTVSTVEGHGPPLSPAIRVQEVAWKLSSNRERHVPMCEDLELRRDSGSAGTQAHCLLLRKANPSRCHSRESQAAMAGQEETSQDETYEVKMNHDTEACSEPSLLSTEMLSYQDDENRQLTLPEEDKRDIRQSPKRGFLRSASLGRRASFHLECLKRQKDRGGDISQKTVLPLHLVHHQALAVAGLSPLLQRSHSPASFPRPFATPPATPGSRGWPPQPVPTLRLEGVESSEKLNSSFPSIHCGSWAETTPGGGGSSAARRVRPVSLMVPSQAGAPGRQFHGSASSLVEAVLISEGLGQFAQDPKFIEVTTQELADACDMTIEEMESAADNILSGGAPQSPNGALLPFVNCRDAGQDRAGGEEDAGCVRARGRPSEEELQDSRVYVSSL
ASSAY OVERVIEW: Inhibition of recombinant […] calcium channel Cav1.2 (unknown origin) expressed in HEK293 cells assessed as inhibition of Kcl-induced calcium influx preincubated for 3 mins prior CaCl2 addition by Fluo-4-AM dye-based FLIPR assay
pIC50: −log10 of the molar value.

[
  {
    "COMPOUND": "O=C(Nc1ccccn1)N1N=C(c2ccc(Br)cc2)CC1c1ccc(F)cc1 (stereo not given)",
    "READING QUALIFIER": "=",
    "pIC50": 5.66
  },
  {
    "COMPOUND": "O=C(NC1CCCCC1)N1N=C(c2ccc(Br)cc2)CC1c1ccc(F)cc1 (stereo not given)",
    "READING QUALIFIER": "=",
    "pIC50": 5.87
  },
  {
    "COMPOUND": "O=C(Nc1ccc(F)cc1)N1N=C(c2ccncc2)C[C@@H]1c1ccc(F)cc1",
    "READING QUALIFIER": "=",
    "pIC50": 5.11
  },
  {
    "COMPOUND": "O=C(Nc1ccc(F)cc1)N1N=C(c2ccccc2)CC1(CCO)c1ccccc1 (stereo not given)",
    "READING QUALIFIER": "=",
    "pIC50": 5.71
  },
  {
    "COMPOUND": "CC1CC(c2ccccc2)=NN1C(=O)Nc1ccc(F)cc1 (stereo not given)",
    "READING QUALIFIER": "=",
    "pIC50": 5.41
  },
  {
    "COMPOUND": "Cc1ccc(C2(CCN3CCN(C)CC3)CC(c3ccccc3)=NN2C(=O)Nc2ccc(F)cc2)cc1 (stereo not given)",
    "READING QUALIFIER": "=",
    "pIC50": 5.44
  },
  {
    "COMPOUND": "O=C(NCCc1ccccc1)N1N=C(c2ccc(Br)cc2)CC1c1ccc(F)cc1 (stereo not given)",
    "READING QUALIFIER": "=",
    "pIC50": 5.73
  },
  {
    "COMPOUND": "CS(=O)(=O)c1ccc(C2(CCO)CC(c3ccccc3)=NN2C(=O)Nc2ccc(F)cc2)cc1 (stereo not given)",
    "READING QUALIFIER": "<",
    "pIC50": 5.00
  },
  {
    "COMPOUND": "COc1ccc([C@]2(CCO)CC(c3cccnc3)=NN2C(=O)Nc2ccc(Br)cc2)cc1",
    "READING QUALIFIER": "=",
    "pIC50": 5.32
  },
  {
    "COMPOUND": "COc1ccc(C2=NN(C(=O)Nc3ccc(Cl)cc3)[C@](CCO)(c3cccnc3)C2)cc1",
    "READING QUALIFIER": "=",
    "pIC50": 5.24
  },
  {
    "COMPOUND": "CS(=O)(=O)c1ccc(C2CC(c3ccccc3)=NN2C(=O)Nc2ccc(F)cc2)cc1 (stereo not given)",
    "READING QUALIFIER": "<",
    "pIC50": 5.00
  },
  {
    "COMPOUND": "O=C(Nc1ccccc1)N1N=C(c2ccc(Br)cc2)CC1c1ccc(F)cc1 (stereo not given)",
    "READING QUALIFIER": "<",
    "pIC50": 5.00
  },
  {
    "COMPOUND": "Cc1ccc(C2(CCO)CC(c3ccncc3)=NN2C(=O)Nc2ccc(F)cc2)cc1 (stereo not given)",
    "READING QUALIFIER": "=",
    "pIC50": 5.07
  },
  {
    "COMPOUND": "CCc1ccc(NC(=O)N2N=C(c3ccc(Br)cc3)CC2c2ccc(F)cc2)cc1 (stereo not given)",
    "READING QUALIFIER": "<",
    "pIC50": 5.00
  },
  {
    "COMPOUND": "Cc1ccc(C2(CCN(C)C)CC(c3ccccc3)=NN2C(=O)Nc2ccc(F)cc2)cc1 (stereo not given)",
    "READING QUALIFIER": "=",
    "pIC50": 5.66
  },
  {
    "COMPOUND": "O=C(Nc1ccccc1F)N1N=C(c2ccc(Br)cc2)CC1c1ccc(F)cc1 (stereo not given)",
    "READING QUALIFIER": "<",
    "pIC50": 5.00
  },
  {
    "COMPOUND": "CS(=O)(=O)c1ccc(C2CC(c3ccncc3)=NN2C(=O)Nc2ccc(F)cc2)cc1 (stereo not given)",
    "READING QUALIFIER": "<",
    "pIC50": 5.00
  },
  {
    "COMPOUND": "O=C(c1ccccc1)N1N=C(c2ccc(Br)cc2)CC1c1ccc(F)cc1 (stereo not given)",
    "READING QUALIFIER": "<",
    "pIC50": 5.00
  },
  {
    "COMPOUND": "CC1=NN(C(=O)Nc2ccc(F)cc2)C(c2ccc(F)cc2)C1 (stereo not given)",
    "READING QUALIFIER": "<",
    "pIC50": 5.00
  },
  {
    "COMPOUND": "COCCOc1ccc(C2(CCO)CC(c3ccccc3)=NN2C(=O)Nc2ccc(F)cc2)cc1 (stereo not given)",
    "READING QUALIFIER": "=",
    "pIC50": 5.20
  },
  {
    "COMPOUND": "Fc1ccc(NC(=S)N2N=C(c3ccc(Br)cc3)CC2c2ccc(F)cc2)cc1 (stereo not given)",
    "READING QUALIFIER": "<",
    "pIC50": 5.00
  },
  {
    "COMPOUND": "O=C(Nc1ccc(F)cc1)N1N=C(c2cc[n+]([O-])cc2)CC1c1ccc(F)cc1 (stereo not given)",
    "READING QUALIFIER": "<",
    "pIC50": 5.00
  },
  {
    "COMPOUND": "COc1ccc(NC(=O)N2N=C(c3ccc(Br)cc3)CC2c2ccc(F)cc2)cc1 (stereo not given)",
    "READING QUALIFIER": "<",
    "pIC50": 5.00
  },
  {
    "COMPOUND": "O=C(Nc1ccc(F)cc1)N1N=C(c2ccncc2)CC1c1ccc(F)cc1 (stereo not given)",
    "READING QUALIFIER": "=",
    "pIC50": 5.19
  },
  {
    "COMPOUND": "O=C(Nc1ccc(F)cc1)N1N=C(c2ccccc2)CC1(CO)c1ccc(F)cc1 (stereo not given)",
    "READING QUALIFIER": "=",
    "pIC50": 5.58
  },
  {
    "COMPOUND": "COCC1(c2ccc(C)cc2)CC(c2ccccc2)=NN1C(=O)Nc1ccc(F)cc1 (stereo not given)",
    "READING QUALIFIER": "<",
    "pIC50": 5.00
  },
  {
    "COMPOUND": "COc1ccc(C2(CCO)CC(c3cccnc3)=NN2C(=O)Nc2ccc(Br)cc2)cc1 (stereo not given)",
    "READING QUALIFIER": "<",
    "pIC50": 5.00
  },
  {
    "COMPOUND": "O=C(Nc1ccncc1)N1N=C(c2ccccc2)CC1c1ccc(F)cc1 (stereo not given)",
    "READING QUALIFIER": "=",
    "pIC50": 5.51
  },
  {
    "COMPOUND": "CC(C)NC(=O)N1N=C(c2ccc(Br)cc2)CC1c1ccc(F)cc1 (stereo not given)",
    "READING QUALIFIER": "=",
    "pIC50": 5.63
  },
  {
    "COMPOUND": "O=C(Nc1cccc(F)c1)N1N=C(c2ccc(Br)cc2)CC1c1ccc(F)cc1 (stereo not given)",
    "READING QUALIFIER": "<",
    "pIC50": 5.00
  },
  {
    "COMPOUND": "Cc1ccc(C2(CCN3CCOCC3)CC(c3ccccc3)=NN2C(=O)Nc2ccc(F)cc2)cc1 (stereo not given)",
    "READING QUALIFIER": "=",
    "pIC50": 5.23
  },
  {
    "COMPOUND": "O=C(Nc1ccc(F)cc1)N1N=C(c2ccncc2)C[C@H]1c1ccc(F)cc1",
    "READING QUALIFIER": "=",
    "pIC50": 5.27
  },
  {
    "COMPOUND": "O=C(Nc1ccc(F)cc1)N1N=C(c2ccc(Br)cc2)CC1c1ccc(F)cc1 (stereo not given)",
    "READING QUALIFIER": "<",
    "pIC50": 5.00
  },
  {
    "COMPOUND": "CN(C)CCOc1ccc(C2(CCO)CC(c3ccccc3)=NN2C(=O)Nc2ccc(F)cc2)cc1 (stereo not given)",
    "READING QUALIFIER": "<",
    "pIC50": 5.00
  },
  {
    "COMPOUND": "O=C(Nc1ccc(F)cc1)N1N=C(c2ccccc2)CC1c1ccc(F)cc1 (stereo not given)",
    "READING QUALIFIER": "<",
    "pIC50": 5.00
  }
]
